# Test system: HER2 (His-tagged HER2 protein) (UniProt P04626 23-652)
# Measurement notes: Ni-NTA bead pull-down with RT-qPCR quantification; 1.5 mM Mg2+; 3 nM HER2, aptamer 0-100 nM; 30 mM Tris-HCl, 150 mM NaCl, 1.5 mM MgCl2, pH not stated, 30 min at room temperature (bead assay); cells 37 C, 30 min to 4 h
# Condition context: tags: His
Value kind: Kd (nM)
Give bare numbers, in nM.

Data request: Please report the recorded Kd for AGCCGCGAGGGGAGGGAUAGGGUAGGGCGCGGCU (XNA, 2'-fluoro C and U (all pyrimidines)) [HER2 RNA aptamer (2'-F pyrimidine)] .
Data returned: 16.5

Ref: paper PMC7767363
